# study system: Keap1/Nrf2 (Homo sapiens)
# Sequence (Q16236 whole entry): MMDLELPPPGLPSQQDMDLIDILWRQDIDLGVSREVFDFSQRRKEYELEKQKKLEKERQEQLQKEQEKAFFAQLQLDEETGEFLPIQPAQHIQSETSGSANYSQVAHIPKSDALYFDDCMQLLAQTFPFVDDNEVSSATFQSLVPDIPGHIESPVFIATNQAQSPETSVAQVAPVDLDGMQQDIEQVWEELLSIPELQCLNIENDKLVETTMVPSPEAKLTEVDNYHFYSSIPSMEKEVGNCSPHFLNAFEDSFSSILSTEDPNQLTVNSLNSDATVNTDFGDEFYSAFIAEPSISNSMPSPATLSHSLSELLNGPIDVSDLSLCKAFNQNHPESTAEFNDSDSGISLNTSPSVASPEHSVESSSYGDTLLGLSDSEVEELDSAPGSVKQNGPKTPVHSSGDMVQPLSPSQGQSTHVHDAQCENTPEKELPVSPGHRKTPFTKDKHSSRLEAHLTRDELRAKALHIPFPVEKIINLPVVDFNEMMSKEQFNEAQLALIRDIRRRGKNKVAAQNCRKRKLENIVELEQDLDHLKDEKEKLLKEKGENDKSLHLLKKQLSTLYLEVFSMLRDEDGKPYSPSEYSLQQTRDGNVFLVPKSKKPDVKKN
# Sequence (Q14145 whole entry): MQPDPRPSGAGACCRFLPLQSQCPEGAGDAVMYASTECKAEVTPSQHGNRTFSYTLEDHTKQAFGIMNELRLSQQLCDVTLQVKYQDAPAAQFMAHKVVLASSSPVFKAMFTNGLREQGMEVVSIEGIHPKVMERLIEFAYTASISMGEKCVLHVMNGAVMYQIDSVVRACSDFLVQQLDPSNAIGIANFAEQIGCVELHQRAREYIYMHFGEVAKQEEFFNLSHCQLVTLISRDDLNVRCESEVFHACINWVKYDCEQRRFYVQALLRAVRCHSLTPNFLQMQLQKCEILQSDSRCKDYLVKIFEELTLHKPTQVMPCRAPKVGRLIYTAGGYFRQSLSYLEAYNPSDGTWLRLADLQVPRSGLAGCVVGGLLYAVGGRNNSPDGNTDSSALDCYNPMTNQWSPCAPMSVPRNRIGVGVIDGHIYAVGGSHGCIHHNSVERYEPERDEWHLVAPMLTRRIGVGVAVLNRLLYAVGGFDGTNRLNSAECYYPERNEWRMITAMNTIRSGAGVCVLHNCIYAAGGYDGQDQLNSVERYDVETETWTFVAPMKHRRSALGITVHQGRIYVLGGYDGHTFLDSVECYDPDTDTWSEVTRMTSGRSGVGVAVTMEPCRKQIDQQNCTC
# protocol notes: Inhibition of Keap1-Nrf2 Interaction (unknown origin) by fluorescence anisotropy
pIC50: −log10 of the molar value.
Measured pIC50 values are reported for all entries that follow.
attribute measured: pIC50

1) O=C(O)CN(c1ncc(N(CC(F)(F)F)S(=O)(=O)c2ccc(F)cc2)c2ccccc12)S(=O)(=O)c1ccc(F)cc1	6.38
2) COc1ccc(S(=O)(=O)N(C)c2cnc(N(CC(=O)O)S(=O)(=O)c3ccc(OC)cc3)c3ccccc23)cc1	6.00
3) COc1ccc(S(=O)(=O)N(CCF)c2cnc(N(CC(=O)O)S(=O)(=O)c3ccc(OC)cc3)c3ccccc23)cc1	6.68
4) O=C(O)CN(c1cnc(N(CC(=O)O)S(=O)(=O)c2ccc(O)cc2)c2ccccc12)S(=O)(=O)c1ccc(O)cc1	6.46
5) COc1ccc(S(=O)(=O)N(CC(=O)O)c2cnc(N(CC(=O)O)S(=O)(=O)c3ccc(F)cc3)c3ccccc23)cc1	6.55
6) COc1ccc(S(=O)(=O)Nc2cnc(N(C(C)C(=O)O)S(=O)(=O)c3ccc(OC)cc3)c3ccccc23)cc1 (stereo not drawn)	5.64
7) COc1ccc(S(=O)(=O)N(CC(F)F)c2cnc(N(CC(=O)O)S(=O)(=O)c3ccc(OC)cc3)c3ccccc23)cc1	7.26
8) COc1ccc(S(=O)(=O)Nc2ncc(N(CC(=O)O)S(=O)(=O)c3ccc(OC)cc3)c3ccccc23)cc1	5.96
9) O=C(O)CN(c1cnc(N(CC(=O)O)S(=O)(=O)c2ccc(F)cc2)c2ccccc12)S(=O)(=O)c1ccc(F)cc1	6.37
10) COc1ccc(S(=O)(=O)Nc2cnc(N(CC(=O)O)S(=O)(=O)c3ccc(OC)cc3)c3ccccc23)cc1	6.64
11) COc1ccc(S(=O)(=O)N(CC(F)(F)F)c2cnc(N(CC(=O)O)S(=O)(=O)c3ccc(F)cc3)c3ccccc23)cc1	6.89
12) COc1ccc(S(=O)(=O)N(CC(=O)O)c2ncc(N(CC(=O)O)S(=O)(=O)c3ccc(F)cc3)c3ccccc23)cc1	6.62
13) COc1ccc(S(=O)(=O)N(CC(=O)O)c2ncc(N(CC(F)(F)F)S(=O)(=O)c3ccc(F)cc3)c3ccccc23)cc1	6.92

* * *

# protocol notes: Half life in human liver microsomes in presence of NADPH by LC-MS/MS analysis
# Assay type: ADME, Microsome
attribute measured: t1/2 (h)

1. COc1ccc(S(=O)(=O)Nc2cnc(N(CC(=O)O)S(=O)(=O)c3ccc(OC)cc3)c3ccccc23)cc1	0.617
2. COc1ccc(S(=O)(=O)N(C)c2cnc(N(CC(=O)O)S(=O)(=O)c3ccc(OC)cc3)c3ccccc23)cc1	0.1
3. COc1ccc(S(=O)(=O)N(CC(F)(F)F)c2cnc(N(CC(=O)O)S(=O)(=O)c3ccc(OC)cc3)c3ccccc23)cc1	2.27
4. O=C(O)CN(c1cnc(N(CC(=O)O)S(=O)(=O)c2ccc(O)cc2)c2ccccc12)S(=O)(=O)c1ccc(O)cc1	0.05
5. COc1ccc(S(=O)(=O)N(CCF)c2cnc(N(CC(=O)O)S(=O)(=O)c3ccc(OC)cc3)c3ccccc23)cc1	0.967
6. COc1ccc(S(=O)(=O)N(CC(F)F)c2cnc(N(CC(=O)O)S(=O)(=O)c3ccc(OC)cc3)c3ccccc23)cc1	1.62

* * *

# protocol notes: Partition coefficient, logD between n-octanol and pH 7.4 buffer by HPLC analysis
# Type: physicochemical
# condition summary: n-octanol/pH 7.4 buffer
attribute measured: logD

1) COc1ccc(S(=O)(=O)Nc2ncc(N(CC(=O)O)S(=O)(=O)c3ccc(OC)cc3)c3ccccc23)cc1	-0.5
2) COc1ccc(S(=O)(=O)N(CC(=O)O)c2ncc(N(CC(F)(F)F)S(=O)(=O)c3ccc(F)cc3)c3ccccc23)cc1	0.5
3) COc1ccc(S(=O)(=O)N(CC(F)F)c2cnc(N(CC(=O)O)S(=O)(=O)c3ccc(OC)cc3)c3ccccc23)cc1	0.2
4) O=C(O)CN(c1ncc(N(CC(F)(F)F)S(=O)(=O)c2ccc(F)cc2)c2ccccc12)S(=O)(=O)c1ccc(F)cc1	0.6
5) COc1ccc(S(=O)(=O)N(C)c2cnc(N(CC(=O)O)S(=O)(=O)c3ccc(OC)cc3)c3ccccc23)cc1	0
6) COc1ccc(S(=O)(=O)N(CC(F)(F)F)c2cnc(N(CC(=O)O)S(=O)(=O)c3ccc(F)cc3)c3ccccc23)cc1	0.6
7) COc1ccc(S(=O)(=O)N(CC(=O)O)c2cnc(N(CC(=O)O)S(=O)(=O)c3ccc(F)cc3)c3ccccc23)cc1	-1.9
8) COc1ccc(S(=O)(=O)N(CCF)c2cnc(N(CC(=O)O)S(=O)(=O)c3ccc(OC)cc3)c3ccccc23)cc1	-0.1
9) COc1ccc(S(=O)(=O)Nc2cnc(N(C(C)C(=O)O)S(=O)(=O)c3ccc(OC)cc3)c3ccccc23)cc1 (stereo unspecified)	-1.1
10) COc1ccc(S(=O)(=O)N(CC(=O)O)c2ncc(N(CC(=O)O)S(=O)(=O)c3ccc(F)cc3)c3ccccc23)cc1	-1.8
11) COc1ccc(S(=O)(=O)N(CC(F)(F)F)c2cnc(N(CC(=O)O)S(=O)(=O)c3ccc(OC)cc3)c3ccccc23)cc1	0.5
